experimental details: Volume of distribution at steady state in iv dosed Han/Wistar rat
Assay type: ADME, organism-based
assay setup: in vivo, read-out: Vdss
reported endpoint: Vd

INSERT INTO measurements (substance_smiles, reported_endpoint, result) VALUES
  ('CCC(=O)N[C@H]1CC[C@@H](C(=O)N(C)c2ccc(-c3nc4ccccc4o3)cc2)C1', 'Vd', '1.6 L/kg');

----------
experimental details: Half life in Han/Wistar rat at 4 mg/kg, po
Type: ADME, organism-based
Parameters: dose 4 mg/kg, route oral
assay setup: in vivo
reported endpoint: half-life (h)

INSERT INTO assay_data (substance_smiles, reported_endpoint, unit_of_measure, readout_number) VALUES
  ('CCC(=O)N[C@H]1CC[C@@H](C(=O)N(C)c2ccc(-c3nc4ccccc4o3)cc2)C1', 'half-life', 'h', 3);

----------
experimental details: AUC (0 to infinity) in Han/Wistar rat at 4 mg/kg, po
Format: ADME, organism-based
Design: time infinity, dose 4 mg/kg, route oral
assay setup: plasma
reported endpoint: AUC(0-inf) (µM·h)

INSERT INTO results (molecule, readout_number) VALUES
  ('CCC(=O)N[C@H]1CC[C@@H](C(=O)N(C)c2ccc(-c3nc4ccccc4o3)cc2)C1 [BI 99179]', 9.35);

----------
test target: Fatty acid synthase (Homo sapiens, UniProt P49327)
Sequence (P49327 whole entry): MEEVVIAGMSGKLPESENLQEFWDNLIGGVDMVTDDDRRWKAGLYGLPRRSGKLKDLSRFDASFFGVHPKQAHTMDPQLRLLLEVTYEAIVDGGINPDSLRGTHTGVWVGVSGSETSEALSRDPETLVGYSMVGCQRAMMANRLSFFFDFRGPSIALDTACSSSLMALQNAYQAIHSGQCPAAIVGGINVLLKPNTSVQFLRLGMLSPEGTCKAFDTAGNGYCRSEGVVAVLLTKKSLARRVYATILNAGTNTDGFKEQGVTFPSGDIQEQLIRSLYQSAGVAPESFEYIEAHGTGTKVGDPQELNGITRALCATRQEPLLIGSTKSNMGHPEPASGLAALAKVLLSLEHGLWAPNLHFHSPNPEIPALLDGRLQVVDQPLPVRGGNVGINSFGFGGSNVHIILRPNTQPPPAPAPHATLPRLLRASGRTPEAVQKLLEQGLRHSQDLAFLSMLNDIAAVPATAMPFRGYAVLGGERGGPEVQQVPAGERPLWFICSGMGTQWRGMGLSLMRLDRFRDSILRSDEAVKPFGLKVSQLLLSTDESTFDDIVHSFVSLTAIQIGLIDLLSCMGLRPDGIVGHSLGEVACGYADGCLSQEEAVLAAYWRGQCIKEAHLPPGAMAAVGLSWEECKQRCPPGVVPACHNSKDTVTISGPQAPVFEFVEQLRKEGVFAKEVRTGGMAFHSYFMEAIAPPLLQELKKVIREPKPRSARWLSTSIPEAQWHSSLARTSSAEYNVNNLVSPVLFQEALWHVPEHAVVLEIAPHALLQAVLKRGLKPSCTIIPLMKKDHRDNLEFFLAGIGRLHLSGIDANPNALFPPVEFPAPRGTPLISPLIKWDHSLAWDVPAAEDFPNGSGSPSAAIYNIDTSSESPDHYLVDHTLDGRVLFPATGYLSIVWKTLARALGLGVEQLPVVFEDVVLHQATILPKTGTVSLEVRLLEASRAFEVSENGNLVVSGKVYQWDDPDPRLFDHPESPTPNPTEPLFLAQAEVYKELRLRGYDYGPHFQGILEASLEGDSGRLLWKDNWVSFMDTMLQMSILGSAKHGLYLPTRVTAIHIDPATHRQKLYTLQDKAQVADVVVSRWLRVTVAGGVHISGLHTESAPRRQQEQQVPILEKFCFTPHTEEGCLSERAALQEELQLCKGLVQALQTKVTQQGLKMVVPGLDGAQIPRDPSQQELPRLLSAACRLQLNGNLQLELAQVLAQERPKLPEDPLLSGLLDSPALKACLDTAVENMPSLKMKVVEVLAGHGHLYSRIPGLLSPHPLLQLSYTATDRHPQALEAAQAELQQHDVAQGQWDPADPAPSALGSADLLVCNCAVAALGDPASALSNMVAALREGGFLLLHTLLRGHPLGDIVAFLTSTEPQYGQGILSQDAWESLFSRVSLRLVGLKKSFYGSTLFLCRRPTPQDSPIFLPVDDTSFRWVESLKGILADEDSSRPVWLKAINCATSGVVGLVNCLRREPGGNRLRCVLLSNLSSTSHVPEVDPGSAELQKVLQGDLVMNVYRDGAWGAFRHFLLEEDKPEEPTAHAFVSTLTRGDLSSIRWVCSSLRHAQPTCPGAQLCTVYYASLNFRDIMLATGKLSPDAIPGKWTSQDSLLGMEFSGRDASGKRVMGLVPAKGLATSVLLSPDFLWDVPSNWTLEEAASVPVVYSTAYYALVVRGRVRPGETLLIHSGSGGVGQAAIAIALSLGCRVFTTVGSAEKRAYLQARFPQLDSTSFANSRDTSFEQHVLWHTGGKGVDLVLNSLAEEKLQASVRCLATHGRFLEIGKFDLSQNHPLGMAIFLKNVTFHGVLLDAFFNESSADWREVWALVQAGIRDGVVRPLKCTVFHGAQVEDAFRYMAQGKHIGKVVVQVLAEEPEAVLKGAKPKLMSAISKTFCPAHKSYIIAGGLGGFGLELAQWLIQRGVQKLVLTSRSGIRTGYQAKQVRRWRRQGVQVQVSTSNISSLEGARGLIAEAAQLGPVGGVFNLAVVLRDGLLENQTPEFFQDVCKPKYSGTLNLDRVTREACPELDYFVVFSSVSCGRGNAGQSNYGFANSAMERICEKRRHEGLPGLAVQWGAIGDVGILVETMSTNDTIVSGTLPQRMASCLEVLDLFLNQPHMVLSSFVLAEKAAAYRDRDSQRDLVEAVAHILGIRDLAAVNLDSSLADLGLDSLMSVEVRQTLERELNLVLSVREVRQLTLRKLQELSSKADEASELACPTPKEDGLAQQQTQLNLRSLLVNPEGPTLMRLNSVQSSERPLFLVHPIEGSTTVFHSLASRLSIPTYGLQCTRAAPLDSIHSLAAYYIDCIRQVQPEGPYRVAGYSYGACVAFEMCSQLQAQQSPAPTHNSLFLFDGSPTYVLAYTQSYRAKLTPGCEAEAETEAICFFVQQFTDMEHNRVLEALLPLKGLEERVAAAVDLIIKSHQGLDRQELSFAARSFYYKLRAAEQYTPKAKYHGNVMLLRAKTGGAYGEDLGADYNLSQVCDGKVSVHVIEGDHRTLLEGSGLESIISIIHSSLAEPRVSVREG
pIC50: −log10 of the molar value.
reported endpoint: pIC50

INSERT INTO results (substance_smiles, test_target, reported_endpoint, readout_number) VALUES
  ('CCC(=O)N[C@H]1CC[C@@H](C(=O)N(C)c2ccc(-c3cn4ccccc4n3)cc2)C1', 'Fatty acid synthase (Homo sapiens, UniProt P49327)', 'pIC50', 6.54),
  ('CC(=O)N[C@H]1CC[C@@H](C(=O)N(C)c2ccc(-c3ccccc3)cc2)C1', 'Fatty acid synthase (Homo sapiens, UniProt P49327)', 'pIC50', 6.32),
  ('CCNC(=O)N[C@H]1CC[C@@H](C(=O)N(C)c2ccc(-c3nc4ccccc4o3)cc2)C1', 'Fatty acid synthase (Homo sapiens, UniProt P49327)', 'pIC50', 6.28),
  ('CCCC(=O)N[C@H]1CC[C@@H](C(=O)N(C)c2ccc(-c3nc4ccccc4o3)cc2)C1', 'Fatty acid synthase (Homo sapiens, UniProt P49327)', 'pIC50', 6.38),
  ('CN(C)CCCCCC(=O)N[C@H]1CC[C@@H](C(=O)N(C)c2ccc(-c3nc4ccccc4[nH]3)cc2)C1', 'Fatty acid synthase (Homo sapiens, UniProt P49327)', 'pIC50', 6.15);

----------
test target: hERG (KCNH2) (Homo sapiens)
Sequence (Q12809 whole entry): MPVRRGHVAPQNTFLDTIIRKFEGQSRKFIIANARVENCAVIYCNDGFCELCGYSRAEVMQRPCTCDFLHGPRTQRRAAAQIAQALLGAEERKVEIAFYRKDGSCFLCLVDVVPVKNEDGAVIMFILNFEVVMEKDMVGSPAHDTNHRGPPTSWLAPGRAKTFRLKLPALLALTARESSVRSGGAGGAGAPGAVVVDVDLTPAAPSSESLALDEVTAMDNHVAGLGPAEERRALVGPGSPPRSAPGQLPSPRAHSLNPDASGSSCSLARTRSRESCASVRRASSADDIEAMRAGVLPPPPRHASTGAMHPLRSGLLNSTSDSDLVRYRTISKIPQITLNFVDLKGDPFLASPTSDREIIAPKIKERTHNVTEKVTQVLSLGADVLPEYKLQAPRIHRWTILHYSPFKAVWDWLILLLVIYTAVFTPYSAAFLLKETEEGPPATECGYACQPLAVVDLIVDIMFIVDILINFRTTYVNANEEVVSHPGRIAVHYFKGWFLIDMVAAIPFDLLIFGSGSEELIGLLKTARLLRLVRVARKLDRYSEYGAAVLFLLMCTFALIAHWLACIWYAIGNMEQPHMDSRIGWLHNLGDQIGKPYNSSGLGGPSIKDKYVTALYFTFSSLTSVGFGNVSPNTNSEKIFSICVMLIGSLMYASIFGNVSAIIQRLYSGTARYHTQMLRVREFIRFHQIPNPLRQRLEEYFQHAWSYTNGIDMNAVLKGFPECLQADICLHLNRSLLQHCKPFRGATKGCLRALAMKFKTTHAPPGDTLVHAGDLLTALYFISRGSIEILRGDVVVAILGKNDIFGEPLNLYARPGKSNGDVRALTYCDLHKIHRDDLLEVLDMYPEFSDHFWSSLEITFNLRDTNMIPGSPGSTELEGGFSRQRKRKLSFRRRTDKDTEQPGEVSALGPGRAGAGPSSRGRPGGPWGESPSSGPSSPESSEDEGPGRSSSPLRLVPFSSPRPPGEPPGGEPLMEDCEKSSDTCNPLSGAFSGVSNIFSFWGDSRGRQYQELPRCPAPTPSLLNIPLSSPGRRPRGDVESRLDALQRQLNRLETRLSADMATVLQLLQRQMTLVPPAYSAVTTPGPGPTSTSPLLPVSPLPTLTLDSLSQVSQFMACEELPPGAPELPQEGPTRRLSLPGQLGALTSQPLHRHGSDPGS
experimental details: Binding affinity to human ERG at 10 uM by radioligand binding assay
reported endpoint: inhibition at 10 µM (%)

INSERT INTO assay_data (substance_smiles, readout_number) VALUES
  ('CCC(=O)N[C@H]1CC[C@@H](C(=O)N(C)c2ccc(-c3nc4ccccc4o3)cc2)C1', -5);

----------
test target: Cytochrome P450 1A2 (Homo sapiens)
Sequence (P05177 whole entry): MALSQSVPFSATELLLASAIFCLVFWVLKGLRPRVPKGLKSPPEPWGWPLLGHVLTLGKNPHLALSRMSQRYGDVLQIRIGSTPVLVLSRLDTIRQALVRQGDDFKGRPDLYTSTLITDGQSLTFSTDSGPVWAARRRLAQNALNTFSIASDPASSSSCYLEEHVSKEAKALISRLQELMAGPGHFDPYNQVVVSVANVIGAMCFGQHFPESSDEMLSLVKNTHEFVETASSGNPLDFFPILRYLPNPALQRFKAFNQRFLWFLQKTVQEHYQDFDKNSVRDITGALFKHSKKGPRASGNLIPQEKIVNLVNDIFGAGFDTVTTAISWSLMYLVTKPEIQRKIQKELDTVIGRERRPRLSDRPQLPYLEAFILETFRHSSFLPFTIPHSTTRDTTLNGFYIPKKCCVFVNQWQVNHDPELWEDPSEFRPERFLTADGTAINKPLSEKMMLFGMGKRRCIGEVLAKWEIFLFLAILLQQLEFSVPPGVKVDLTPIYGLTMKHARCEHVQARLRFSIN
reported endpoint: IC50

INSERT INTO results (molecule, result) VALUES
  ('CCC(=O)N[C@H]1CC[C@@H](C(=O)N(C)c2ccc(-c3nc4ccccc4o3)cc2)C1 [BI 99179]', '> 10 µM');

----------
test target: Fatty acid synthase (Homo sapiens, UniProt P49327)
pIC50: −log10 of the molar value.
Listed next: entries and their corresponding pIC50.
reported endpoint: pIC50

INSERT INTO assay_data (compound, test_target, readout_number) VALUES
  ('COCC(=O)N[C@H]1CC[C@@H](C(=O)N(C)c2ccc(-c3nc4ccccc4o3)cc2)C1', 'Fatty acid synthase (Homo sapiens, UniProt P49327)', 6.04),
  ('CC(C)C(=O)N[C@H]1CC[C@@H](C(=O)N(C)c2ccc(-c3nc4ccccc4[nH]3)cc2)C1', 'Fatty acid synthase (Homo sapiens, UniProt P49327)', 5.82),
  ('CN(C)CCCCCC(=O)N[C@H]1CC[C@@H](C(=O)N(C)c2ccc(-c3ccccc3)cc2)C1', 'Fatty acid synthase (Homo sapiens, UniProt P49327)', 5.70),
  ('C/C=C/C/C=C/CCC(=O)[C@H]1O[C@H]1C(N)=O [CERULENIN]', 'Fatty acid synthase (Homo sapiens, UniProt P49327)', 5.24),
  ('CN(C)CCCCCC(=O)N[C@H]1CC[C@@H](C(=O)N(C)c2ccc(-c3nc4ccccc4o3)cc2)C1', 'Fatty acid synthase (Homo sapiens, UniProt P49327)', 6.24),
  ('CCC(=O)N[C@H]1CC[C@@H](C(=O)N(C)c2ccc(-c3nc4ccccc4o3)cc2)C1 [BI 99179]', 'Fatty acid synthase (Homo sapiens, UniProt P49327)', 7.10),
  ('CN(C(=O)[C@@H]1CC[C@H](NC(=O)C(F)F)C1)c1ccc(-c2nc3ccccc3o2)cc1', 'Fatty acid synthase (Homo sapiens, UniProt P49327)', 6.57),
  ('CCC(=O)N[C@H]1CC[C@@H](C(=O)N(C)c2ccc(-c3nc4ccccc4[nH]3)cc2)C1', 'Fatty acid synthase (Homo sapiens, UniProt P49327)', 6.72);

----------
experimental details: Permeability across human Caco2 cells
Type: ADME, cell-based
assay setup: Caco-2, read-out: permeability
reported endpoint: Papp (×10⁻⁶ cm/s)

INSERT INTO assay_data (compound, reported_endpoint, unit_of_measure, readout_number) VALUES
  ('CCC(=O)N[C@H]1CC[C@@H](C(=O)N(C)c2ccc(-c3nc4ccccc4o3)cc2)C1 [BI 99179]', 'Papp', '×10⁻⁶ cm/s', 94);

----------
test target: Cytochrome P450 3A4 (Homo sapiens, UniProt P08684)
Sequence (P08684 whole entry): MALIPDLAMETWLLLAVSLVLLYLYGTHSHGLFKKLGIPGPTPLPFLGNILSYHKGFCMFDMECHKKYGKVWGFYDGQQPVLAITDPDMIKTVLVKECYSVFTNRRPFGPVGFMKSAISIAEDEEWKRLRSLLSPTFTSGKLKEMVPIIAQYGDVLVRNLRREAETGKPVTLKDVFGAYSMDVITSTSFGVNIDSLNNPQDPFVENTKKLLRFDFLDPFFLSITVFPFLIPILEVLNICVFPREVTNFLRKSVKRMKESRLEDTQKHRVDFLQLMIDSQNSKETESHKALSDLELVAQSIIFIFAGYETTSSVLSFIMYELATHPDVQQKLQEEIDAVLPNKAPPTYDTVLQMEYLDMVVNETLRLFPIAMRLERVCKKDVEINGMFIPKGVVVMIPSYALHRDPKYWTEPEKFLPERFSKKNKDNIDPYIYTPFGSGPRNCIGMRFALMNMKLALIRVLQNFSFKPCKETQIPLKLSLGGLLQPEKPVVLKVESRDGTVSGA
reported endpoint: IC50

INSERT INTO results (compound, result) VALUES
  ('CCC(=O)N[C@H]1CC[C@@H](C(=O)N(C)c2ccc(-c3nc4ccccc4o3)cc2)C1 [BI 99179]', '> 10 µM');

----------
experimental details: Clearance in iv dosed Han/Wistar rat
Format: ADME, organism-based
assay setup: in vivo
reported endpoint: clearance

INSERT INTO assay_data (compound, result) VALUES
  ('CCC(=O)N[C@H]1CC[C@@H](C(=O)N(C)c2ccc(-c3nc4ccccc4o3)cc2)C1 [BI 99179]', '8.2 mL/min/kg');

----------
experimental details: Aqueous solubility of compound at pH 7.4
Type: physicochemical
assay setup: buffer
reported endpoint: solubility (µg/mL)

INSERT INTO measurements (compound, reported_endpoint, unit_of_measure, readout_number) VALUES
  ('CCC(=O)N[C@H]1CC[C@@H](C(=O)N(C)c2ccc(-c3nc4ccccc4o3)cc2)C1 [BI 99179]', 'solubility', 'µg/mL', 5);

----------
experimental details: Drug level in Han/Wistar rat cerebrospinal fluid at 4 mg/kg, po after 2 hrs
Type: ADME, organism-based
Set-up: dose 4 mg/kg, route oral
assay setup: read-out: Drug uptake
reported endpoint: concentration at 2 h (µM)

INSERT INTO results (compound, reported_endpoint, readout_number) VALUES
  ('CCC(=O)N[C@H]1CC[C@@H](C(=O)N(C)c2ccc(-c3nc4ccccc4o3)cc2)C1 [BI 99179]', 'concentration at 2 h', 0.05);

----------
experimental details: Plasma protein binding in rat
Format: ADME, cell-free
assay setup: read-out: PPB (converted)
reported endpoint: fraction unbound

INSERT INTO assay_data (substance_smiles, readout_number) VALUES
  ('CCC(=O)N[C@H]1CC[C@@H](C(=O)N(C)c2ccc(-c3nc4ccccc4o3)cc2)C1', 0.024);
